Where do these numbers come from? They come from patent US20250368745A1.

# Kd per entry
Target: T1, human IL-18BP (human, UniProt O95998 31-194)
T1 construct: UniProt printed as 095998; also called hIL-18BP
T1 sequence: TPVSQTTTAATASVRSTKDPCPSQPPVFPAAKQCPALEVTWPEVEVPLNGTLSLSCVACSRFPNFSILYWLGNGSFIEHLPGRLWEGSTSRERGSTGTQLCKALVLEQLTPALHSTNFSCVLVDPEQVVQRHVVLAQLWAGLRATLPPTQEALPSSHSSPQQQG
Experiment: BLI, apparent KD
# unit: nM | format: bare number

Solved cases below.
binder	measured endpoint	unit	readout number
SA301a HC-T57V (antibody, name in Kabat numbering, V domains shown, IgG1 kappa) VH: QVQLQESGPGLVKPSQTLSLTCTVSGYSITSDYNSHWIRQPPGKGLEWIGYIHYSGSVNYNPSLKSRVTISRDTSKNQFSLKLSSVTAADTAVYYCARNYGSIYVNYFDYWGQGTLVTVSS VL: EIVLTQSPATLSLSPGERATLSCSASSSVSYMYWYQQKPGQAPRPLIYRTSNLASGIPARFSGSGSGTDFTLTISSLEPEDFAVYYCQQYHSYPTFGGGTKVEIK	Kd	nM	0.36
SA301a HC-N58R (antibody, name in Kabat numbering, V domains shown, IgG1 kappa) VH: QVQLQESGPGLVKPSQTLSLTCTVSGYSITSDYNSHWIRQPPGKGLEWIGYIHYSGSTRYNPSLKSRVTISRDTSKNQFSLKLSSVTAADTAVYYCARNYGSIYVNYFDYWGQGTLVTVSS VL: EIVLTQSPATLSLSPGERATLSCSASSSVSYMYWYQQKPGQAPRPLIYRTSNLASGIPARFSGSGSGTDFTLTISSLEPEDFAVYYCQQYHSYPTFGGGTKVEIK	Kd	nM	0.46
SA301a HC-G55Q (antibody, name in Kabat numbering, V domains shown, IgG1 kappa) VH: QVQLQESGPGLVKPSQTLSLTCTVSGYSITSDYNSHWIRQPPGKGLEWIGYIHYSQSTNYNPSLKSRVTISRDTSKNQFSLKLSSVTAADTAVYYCARNYGSIYVNYFDYWGQGTLVTVSS VL: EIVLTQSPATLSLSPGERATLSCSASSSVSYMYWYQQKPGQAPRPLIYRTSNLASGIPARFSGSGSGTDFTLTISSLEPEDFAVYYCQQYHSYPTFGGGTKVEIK	Kd	nM	0.79
SA301a HC-Y59G (antibody, name in Kabat numbering, V domains shown, IgG1 kappa) VH: QVQLQESGPGLVKPSQTLSLTCTVSGYSITSDYNSHWIRQPPGKGLEWIGYIHYSGSTNGNPSLKSRVTISRDTSKNQFSLKLSSVTAADTAVYYCARNYGSIYVNYFDYWGQGTLVTVSS VL: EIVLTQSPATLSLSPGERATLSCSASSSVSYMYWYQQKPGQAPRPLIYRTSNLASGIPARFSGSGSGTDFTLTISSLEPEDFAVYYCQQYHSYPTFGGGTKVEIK	Kd	nM	1.59
SA301a HC-G55H (antibody, name in Kabat numbering, V domains shown, IgG1 kappa) VH: QVQLQESGPGLVKPSQTLSLTCTVSGYSITSDYNSHWIRQPPGKGLEWIGYIHYSHSTNYNPSLKSRVTISRDTSKNQFSLKLSSVTAADTAVYYCARNYGSIYVNYFDYWGQGTLVTVSS VL: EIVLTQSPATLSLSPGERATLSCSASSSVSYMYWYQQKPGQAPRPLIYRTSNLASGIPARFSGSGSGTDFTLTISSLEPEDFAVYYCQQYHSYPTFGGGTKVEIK	Kd	nM	1.31

Req: Param item = SA301a HC-T57N (antibody, name in Kabat numbering, V domains shown, IgG1 kappa) VH: QVQLQESGPGLVKPSQTLSLTCTVSGYSITSDYNSHWIRQPPGKGLEWIGYIHYSGSNNYNPSLKSRVTISRDTSKNQFSLKLSSVTAADTAVYYCARNYGSIYVNYFDYWGQGTLVTVSS VL: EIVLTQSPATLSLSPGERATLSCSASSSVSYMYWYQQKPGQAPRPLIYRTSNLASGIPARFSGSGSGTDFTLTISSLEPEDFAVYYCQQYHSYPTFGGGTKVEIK ; retrieve measured Kd.
Resp: 0.86

Req: Param item = SA301a HC-T57L (antibody, name in Kabat numbering, V domains shown, IgG1 kappa) VH: QVQLQESGPGLVKPSQTLSLTCTVSGYSITSDYNSHWIRQPPGKGLEWIGYIHYSGSLNYNPSLKSRVTISRDTSKNQFSLKLSSVTAADTAVYYCARNYGSIYVNYFDYWGQGTLVTVSS VL: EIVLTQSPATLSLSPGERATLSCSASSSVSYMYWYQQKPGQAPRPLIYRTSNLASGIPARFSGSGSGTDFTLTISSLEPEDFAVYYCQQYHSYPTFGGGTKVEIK ; retrieve measured Kd.
Resp: 0.32

Req: Param item = SA301a HC-S56L (antibody, name in Kabat numbering, V domains shown, IgG1 kappa) VH: QVQLQESGPGLVKPSQTLSLTCTVSGYSITSDYNSHWIRQPPGKGLEWIGYIHYSGLTNYNPSLKSRVTISRDTSKNQFSLKLSSVTAADTAVYYCARNYGSIYVNYFDYWGQGTLVTVSS VL: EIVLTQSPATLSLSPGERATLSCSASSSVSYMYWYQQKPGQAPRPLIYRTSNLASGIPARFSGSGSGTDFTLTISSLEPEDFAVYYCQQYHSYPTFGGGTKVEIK ; retrieve measured Kd.
Resp: 0.36

Req: Param item = SA301a HC-N58H (antibody, name in Kabat numbering, V domains shown, IgG1 kappa) VH: QVQLQESGPGLVKPSQTLSLTCTVSGYSITSDYNSHWIRQPPGKGLEWIGYIHYSGSTHYNPSLKSRVTISRDTSKNQFSLKLSSVTAADTAVYYCARNYGSIYVNYFDYWGQGTLVTVSS VL: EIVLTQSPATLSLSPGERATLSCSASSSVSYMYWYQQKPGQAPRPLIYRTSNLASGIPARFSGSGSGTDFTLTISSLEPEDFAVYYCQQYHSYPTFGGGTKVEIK ; retrieve measured Kd.
Resp: 0.31

Req: Param item = SA301a HC-N58M (antibody, name in Kabat numbering, V domains shown, IgG1 kappa) VH: QVQLQESGPGLVKPSQTLSLTCTVSGYSITSDYNSHWIRQPPGKGLEWIGYIHYSGSTMYNPSLKSRVTISRDTSKNQFSLKLSSVTAADTAVYYCARNYGSIYVNYFDYWGQGTLVTVSS VL: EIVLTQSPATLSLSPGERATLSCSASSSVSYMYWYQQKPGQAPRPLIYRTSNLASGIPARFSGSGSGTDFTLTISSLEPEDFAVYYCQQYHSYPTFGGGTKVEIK ; retrieve measured Kd.
Resp: 0.23
